Experiment: Relative efficiency of fluorescence / absolute sensitivity of label, normalized to dye A30 in PBS
Assay type: physicochemical
Conditions: PBS; excitation and record in absorption and fluorescence maxima; ε*Φ normalized to A30 in PBS
RECORDED ENDPOINT: Sensitivity of record max/ max

Some entries whose results are on file:
>  <COMPOUND>
CCN1C(=CC=CC=CC2=[N+](CCCCS(=O)(=O)[O-])c3ccccc3C2(C)CCCCC(=O)O)C(C)(C)c2ccccc21 (centres unmarked)

>  <RECORDED ENDPOINT>
Sensitivity of record max/ max

>  <OBSERVED RESULT>
0.372

$$$$
>  <COMPOUND>
CCN1/C(=C/C=C/C=C/C2=[N+](CC)c3ccc(S(=O)(=O)[O-])cc3C2(C)C)C(C)(CCCCC(=O)O)c2ccccc21 (centres unmarked)

>  <RECORDED ENDPOINT>
Sensitivity of record max/ max

>  <OBSERVED RESULT>
0.353

$$$$

A: CC[N+]1=C(/C=C/C=C/C=C2/N(CCCCS(=O)(=O)[O-])c3ccccc3C2(C)CCCCC(=O)O)C(C)(C)c2cc(C)ccc21 (centres unmarked)
B: CC[N+]1=C(C=CC=CC=C2N(CCCCS(=O)(=O)[O-])c3ccccc3C2(C)C)C(C)(CCCCC(=O)O)c2ccccc21 (centres unmarked)
C: CC[N+]1=C(/C=C/C=C/C=C2/N(CCCCS(=O)(=O)[O-])c3ccc(C)cc3C2(C)CCCCC(=O)O)C(C)(C)c2cc(C)cc(C)c21 (centres unmarked)
Hi! Can you put these in order of Sensitivity of record max/ max, lowest number first? Answer by writing out the labels in the requested order.
C, A, B
(C: 0.170, A: 0.261, B: 0.433)

I: CCN1C(=CC=CC=CC2=[N+](CCCCS(=O)(=O)[O-])c3ccc(C)cc3C2(C)CCCCC(=O)O)C(C)(C)c2cc(C)ccc21 (centres unmarked)
II: CCN1/C(=C/C=C/C=C/C2=[N+](CC)c3ccccc3C2(C)C)C(C)(CCCCC(=O)O)c2cc(S(=O)(=O)[O-])ccc21 (centres unmarked)
Given the listed records, identify the one among I and II with higher Sensitivity of record max/ max. Answer by quoting the chosen item's label.
II
(II: 0.385, I: 0.238)

----------
Assay: Relative efficiency of fluorescence / absolute sensitivity of label, normalized to dye A30 in PBS
Type: physicochemical
Settings: MeOH; excitation 635 nm, record 670 nm
RECORDED ENDPOINT: Sensitivity of record 635/ 670

>  <COMPOUND>
CC[N+]1=C(/C=C/C=C/C=C2/N(CCCCS(=O)(=O)[O-])c3ccccc3C2(C)CCCCC(=O)O)C(C)(C)c2cc(C)cc(C)c21 (stereo not drawn)

>  <OBSERVED RESULT>
0.210

$$$$

I: CC[N+]1=C(/C=C/C=C/C=C2/N(CCCCS(=O)(=O)[O-])c3ccc(C)cc3C2(C)CCCCC(=O)O)C(C)(C)c2cc(C)cc(C)c21 (stereo not drawn)
II: CCN1/C(=C/C=C/C=C/C2=[N+](CC)c3ccc(S(=O)(=O)[O-])cc3C2(C)C)C(C)(CCCCC(=O)O)c2ccccc21 (stereo not drawn)
Of I and II , which carries the smaller reported Sensitivity of record 635/ 670 figure? Answer by quoting the chosen item's label.
I
(I: 0.151, II: 0.359)

----------
Test: Relative efficiency of fluorescence / absolute sensitivity of label, normalized to dye A30 in PBS
Type: physicochemical
Conditions: PBS; excitation 655 nm, record 690 nm
Experimental: […] Term sensitivity of fluorescent analysis is defined by the absolute sensitivity of label that may be represented as the product of molar extinction coefficient by quantum efficiency of fluorescence (ε*Φ). Thus, there are determined the absolute sensitivity of indodicarbocyanines (A1-A30, B1-B7) in appropriate absorption and fluorescence maxima in methanol and in aqueous phosphate buffered saline. […]
RECORDED ENDPOINT: Sensitivity of record 655/ 690

>  <MOLECULE>
CCN1C(=CC=CC=CC2=[N+](CCCCS(=O)(=O)[O-])c3ccc(C)cc3C2(C)CCCCC(=O)O)C(C)(C)c2ccccc21 (stereo not shown) [A4]

>  <Sensitivity of record 655/ 690>
0.054

$$$$

P: CCN1C(=CC=CC=CC2=[N+](CCCCS(=O)(=O)[O-])c3ccccc3C2(C)CCCCC(=O)O)C(C)(C)c2ccccc21 (stereo not shown) [A1]
Q: CC[N+]1=C(/C=C/C=C/C=C2/N(CCCCS(=O)(=O)[O-])c3ccccc3C2(C)CCCCC(=O)O)C(C)(C)c2cc(C)ccc21 (stereo not shown) [A2]
Given the listed records, identify the one among P and Q with higher Sensitivity of record 655/ 690. Answer by quoting the chosen item's label.
P

----------
Experiment: Relative efficiency of fluorescence / absolute sensitivity of label, normalized to dye A30 in PBS
Format: physicochemical
Conditions: MeOH; excitation and record in absorption and fluorescence maxima; ε*Φ normalized to A30 in PBS
RECORDED ENDPOINT: Sensitivity of record max/ max

>  <MOLECULE>
CC[N+]1=C(/C=C/C=C/C=C2/N(CCCCS(=O)(=O)[O-])c3ccc(C)cc3C2(C)CCCCC(=O)O)C(C)(C)c2cc(C)cc(C)c21 (stereo not drawn)

>  <Sensitivity of record max/ max>
0.292

$$$$
>  <MOLECULE>
CC[N+]1=C(/C=C/C=C/C=C2/N(CCCCS(=O)(=O)[O-])c3ccccc3C2(C)CCCCC(=O)O)C(C)(C)c2cc(C)cc(C)c21 (stereo not drawn)

>  <Sensitivity of record max/ max>
0.314

$$$$
>  <MOLECULE>
CCN1C(=CC=CC=CC2=[N+](CCCCS(=O)(=O)[O-])c3ccc(C)cc3C2(C)CCCCC(=O)O)C(C)(C)c2ccccc21 (stereo not drawn)

>  <Sensitivity of record max/ max>
0.381

$$$$
>  <MOLECULE>
CC[N+]1=C(/C=C/C=C/C=C2/N(CCCCS(=O)(=O)[O-])c3ccccc3C2(C)CCCCC(=O)O)C(C)(C)c2cc(C)ccc21 (stereo not drawn)

>  <Sensitivity of record max/ max>
0.442

$$$$

1: CCN1C(=CC=CC=CC2=[N+](CCCCS(=O)(=O)[O-])c3ccc(C)cc3C2(C)CCCCC(=O)O)C(C)(C)c2cc(C)ccc21 (stereo not drawn)
2: CCN1/C(=C/C=C/C=C/C2=[N+](CC)c3ccccc3C2(C)C)C(C)(CCCCC(=O)O)c2cc(S(=O)(=O)[O-])ccc21 (stereo not drawn)
Given the listed records, identify the one among 1 and 2 with higher Sensitivity of record max/ max. Answer by quoting the chosen item's label.
2
(2: 0.627, 1: 0.391)

----------
Experiment: Quantum efficiency of fluorescence, measured versus a reference dye
Type: physicochemical
Conditions: MeOH
Description: For all indodicarbocyanine dyes (I) (A1) - (A30) and (B1) - (B7) of the invention, there are determined the quantum efficiency of fluorescence in methanol and in aqueous phosphate buffered saline (Table 1, Fig. 3). […] In methanol, dyes (A10, A22, A25, A29, A30) have the upper-range of quantum efficiency of fluorescence (Φ ∼ 0.3), but in PBS, dyes (A10, A22, A25, A29, A30) have the maximal Φ -value.
RECORDED ENDPOINT: Φ (quantum efficiency of fluorescence)

>  <COMPOUND>
CCN1C(=CC=CC=CC2=[N+](CCCCS(=O)(=O)[O-])c3ccc(C)cc3C2(C)CCCCC(=O)O)C(C)(C)c2ccccc21 (stereo not drawn) [A4]

>  <RECORDED ENDPOINT>
Φ (quantum efficiency of fluorescence)

>  <OBSERVED RESULT>
0.14

$$$$
>  <COMPOUND>
CCN1/C(=C/C=C/C=C/C2=[N+](CC)c3ccccc3C2(C)C)C(C)(CCCCC(=O)O)c2cc(S(=O)(=O)[O-])ccc21 (stereo not drawn) [A9]

>  <RECORDED ENDPOINT>
Φ (quantum efficiency of fluorescence)

>  <OBSERVED RESULT>
0.23

$$$$
>  <COMPOUND>
CC[N+]1=C(/C=C/C=C/C=C2/N(CCCCS(=O)(=O)[O-])c3ccccc3C2(C)CCCCC(=O)O)C(C)(C)c2cc(C)cc(C)c21 (stereo not drawn) [A3]

>  <RECORDED ENDPOINT>
Φ (quantum efficiency of fluorescence)

>  <OBSERVED RESULT>
0.12

$$$$
>  <COMPOUND>
CCN1/C(=C/C=C/C=C/C2=[N+](CC)c3ccc(S(=O)(=O)[O-])cc3C2(C)C)C(C)(CCCCC(=O)O)c2ccccc21 (stereo not drawn) [A7]

>  <RECORDED ENDPOINT>
Φ (quantum efficiency of fluorescence)

>  <OBSERVED RESULT>
0.23

$$$$
>  <COMPOUND>
CCN1C(=CC=CC=CC2=[N+](CCCCS(=O)(=O)[O-])c3ccccc3C2(C)CCCCC(=O)O)C(C)(C)c2ccccc21 (stereo not drawn) [A1]

>  <RECORDED ENDPOINT>
Φ (quantum efficiency of fluorescence)

>  <OBSERVED RESULT>
0.25

$$$$

I: Cc1ccc2c(c1)C(C)(C)C(=CC=CC=CC1=[N+](CCCCS(=O)(=O)[O-])c3ccc(CCC(=O)O)cc3C1(C)C)N2CCCCS(=O)(=O)[O-].[Na+] [B4]
II: CC[N+]1=C(/C=C/C=C/C=C2/N(CCCCS(=O)(=O)[O-])c3ccc(C)cc3C2(C)CCCCC(=O)O)C(C)(C)c2cc(C)cc(C)c21 (stereo not drawn) [A6]
Given the listed records, identify the one among I and II with higher Φ (quantum efficiency of fluorescence). Answer by quoting the chosen item's label.
I
(I: 0.19, II: 0.11)

Origin of measurements: patent EP2157088A1
